Each entry below carries its reported GI50.
- Tested on: EKVX
- assay.method.text: NCI tumour cell line growth inhibition, 48 h
Active and inactive are the calls of the source. No stated cut-off is given here; in the data, active = GI50 up to about 1.1 µM and inactive = higher. Where a SMILES comes first, the peptide text is derived from it. The star is where a group is joined. Fmoc = O=C(OCC1c2ccccc2-c2ccccc21)*; Boc = CC(C)(C)OC(=O)*
quantity.kind: GI50

[[record]]
compound = "CCOP(=O)(OCC)/C(C#N)=C/c1ccc(-c2ccc(F)cc2F)o1"
reported_result = "16.3 µM (inactive)"

[[record]]
compound = "C[C@@H](CCO)OC1OC(COC(=O)C(C)(C)C)C(OC(=O)C(C)(C)C)C(OC(=O)C(C)(C)C)C1OC(=O)C(C)(C)C (stereo not given in full)"
reported_result = "48.4 µM (inactive)"

[[record]]
compound = "COc1ccc(CC[N+]2(C)COc3cc4oc(=O)cc(C)c4cc3C2)cc1OC (stereo not given)"
reported_result = "> 100 µM (inactive)"

[[record]]
compound = "COc1cc(/C=C/C(=N\\NC(=O)c2ccccc2)c2sc(Nc3ccc(Cl)c(Cl)c3)nc2C)ccc1O"
reported_result = "29.6 µM (inactive)"

[[record]]
compound = "CC(C)CC(=O)CC(O)C(Cl)(Cl)Cl (stereo not given)"
reported_result = "> 100 µM (inactive)"

[[record]]
compound = "CC(CCC#N)(CCC#N)C(=O)CC(O)(C(F)(F)F)C(F)(F)F"
reported_result = "20.7 µM (inactive)"

[[record]]
compound = "C/C(=C(/C)c1ccc(O)cc1)c1ccc(O)cc1"
reported_result = "8.95 µM (inactive)"

[[record]]
compound = "CC(C)(C)OC(=O)NCCCCC(NC(=O)C(Cc1c[nH]c2ccccc12)NC(=O)OCC1c2ccccc2-c2ccccc21)C(=O)O (stereo not given) (Fmoc-Trp-Lys(Boc)-OH; configuration not given here)"
reported_result = "> 100 µM (inactive)"

[[record]]
compound = "Cc1cc(C)c(C[C@H]2COC(=O)[C@]2(O)Cc2c(C)cc(C)cc2C)c(C)c1"
reported_result = "12.6 µM (inactive)"

[[record]]
compound = "O=C(O)c1nc2ccc(C(F)(F)F)cc2nc1NCc1ccc(Cl)c(Cl)c1"
reported_result = "15.8 µM (inactive)"

[[record]]
compound = "Cc1n[nH]c(=O)n1/N=C/c1ccc(Cl)cc1"
reported_result = "13.3 µM (inactive)"

[[record]]
compound = "COC1=CC(=O)c2c(O)c3c(c(O)c2C1=O)C=C(C)OC3O (stereo not given)"
reported_result = "7.35 µM (inactive)"

[[record]]
compound = "O=c1ccn(/C=C/C(O)C(O)CO)c(=O)[nH]1 (stereo not given)"
reported_result = "> 100 µM (inactive)"

[[record]]
compound = "Brc1ccc(-c2nnc(-c3nn(-c4ccccc4)c4nc5ccccc5nc34)o2)cc1"
reported_result = "> 100 µM (inactive)"

[[record]]
compound = "CCC1CC(C)=CCN1S(=O)(=O)c1ccc(C)cc1 (stereo not given)"
reported_result = "31.8 µM (inactive)"

[[record]]
compound = "CC(=O)Nc1ccc2c3c(cc(O)c2c1)N(C(=O)CCCCC(=O)N1CC(CCl)c2c1cc(O)c1cc(NC(C)=O)ccc21)CC3CCl (stereo not given)"
reported_result = "2.38 µM (inactive)"

[[record]]
compound = "O=C1NC(=S)NC1C(Cc1ccccc1)c1ccco1 (stereo not given)"
reported_result = "> 100 µM (inactive)"

[[record]]
compound = "CCCCc1ccc(-n2c(C)c(COC(=O)NC)c(COC(=O)NC)c2C)cc1"
reported_result = "13 µM (inactive)"

[[record]]
compound = "C=CCCC(O)c1cc(C)c(O)c(C)c1 (stereo not given)"
reported_result = "> 100 µM (inactive)"

[[record]]
compound = "O=C1OC(=O)c2cc(S(=O)(=O)c3ccc4c(c3)C(=O)OC4=O)ccc21"
reported_result = "> 100 µM (inactive)"

[[record]]
compound = "O=C(c1cc(Cl)cc(Cl)c1)N(C(=S)OC12CC3CC(CC(C3)C1)C2)c1ccccc1"
reported_result = "21.8 µM (inactive)"

[[record]]
compound = "CCCNC(=O)c1cc(NC(=O)c2cc(NC(=O)/C=C/c3ccccc3)c(OC)c(OC)c2)c(OC)c(OC)c1"
reported_result = "15.8 µM (inactive)"

[[record]]
compound = "C=C1CC(COc2ccc3ccc(=O)oc3c2)(c2ccccc2)OC1=O (stereo not given)"
reported_result = "7.5 µM (inactive)"

[[record]]
compound = "CC(C)(C)OC(=O)N1C[C@H](CC(=O)OCc2ccccc2)C[C@H]1C(=O)OCC(Cl)(Cl)Cl"
reported_result = "2.78 µM (inactive)"

[[record]]
compound = "CCCN1C(=O)CC(C)N(Cc2ccccc2Cl)C1=S (stereo not given)"
reported_result = "27.9 µM (inactive)"

